- Target desc: rP2 × 4R C132A/C159A mutant (Rattus norvegicus, UniProt P51577, C132A/C159A)
- Construct: host or cells: Xenopus laevis oocytes
- Sequence (P51577 1-388 C132A/C159A): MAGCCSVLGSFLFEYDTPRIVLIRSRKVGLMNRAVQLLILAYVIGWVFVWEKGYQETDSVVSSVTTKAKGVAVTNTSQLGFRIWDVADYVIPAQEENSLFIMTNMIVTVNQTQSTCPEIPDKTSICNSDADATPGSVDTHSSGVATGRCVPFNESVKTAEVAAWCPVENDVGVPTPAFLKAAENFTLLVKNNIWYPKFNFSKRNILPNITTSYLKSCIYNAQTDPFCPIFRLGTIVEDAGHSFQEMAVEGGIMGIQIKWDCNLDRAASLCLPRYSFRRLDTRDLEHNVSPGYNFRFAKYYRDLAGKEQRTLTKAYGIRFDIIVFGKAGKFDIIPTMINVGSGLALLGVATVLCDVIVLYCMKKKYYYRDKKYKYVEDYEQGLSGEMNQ
- Assay explanation: ATP concentration–response curves, voltage clamp, C132A/C159A double mutant
- Format: cell-based
- Condition summary: ATP EC50, C132A/C159A; +10 µM Zn(II)
Readout name: EC50
Kindly write the number and append the unit.

Challenge: Short answer please: EC50, rP2 × 4R C132A/C159A mutant (Rattus norvegicus, UniProt P51577, C132A/C159A), entry Nc1ncnc2c1ncn2[C@@H]1O[C@H](COP(=O)(O)OP(=O)(O)OP(=O)(O)O)[C@@H](O)[C@H]1O [ATP, adenosine triphosphate]
Response given: 4.5 µM

====

- Target desc: rP2 × 4R (Rattus norvegicus, UniProt P51577)
- Construct: host or cells: Xenopus laevis oocytes (intranuclear plasmid injection, pcDNA3)
- Sequence (P51577 1-388): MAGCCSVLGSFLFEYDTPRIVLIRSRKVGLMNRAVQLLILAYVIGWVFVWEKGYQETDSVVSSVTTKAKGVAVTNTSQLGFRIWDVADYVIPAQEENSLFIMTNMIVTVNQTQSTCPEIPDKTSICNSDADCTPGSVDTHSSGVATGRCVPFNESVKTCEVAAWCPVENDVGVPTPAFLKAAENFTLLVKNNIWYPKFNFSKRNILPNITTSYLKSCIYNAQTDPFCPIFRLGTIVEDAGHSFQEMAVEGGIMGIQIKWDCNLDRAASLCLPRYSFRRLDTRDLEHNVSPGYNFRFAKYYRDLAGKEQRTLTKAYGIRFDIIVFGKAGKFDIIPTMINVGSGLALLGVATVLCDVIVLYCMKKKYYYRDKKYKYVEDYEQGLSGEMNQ
- Assay explanation: ATP concentration–response curves, two-electrode voltage clamp in oocytes expressing wild type rP2 × 4R
- Format: cell-based
- Condition summary: ATP EC50, P2 × 4 WT; control
Readout name: pEC50
As a rule, pEC50 stands for the negative log10 of the concentration, concentration in M.

Challenge: Name the reported pEC50 value associated with the molecule Nc1ncnc2c1ncn2[C@@H]1O[C@H](COP(=O)(O)OP(=O)(O)OP(=O)(O)O)[C@@H](O)[C@H]1O [ATP, adenosine triphosphate]
Response given: 4.56

====

- Target desc: rP2 × 4R (Rattus norvegicus, UniProt P51577)
- Construct: host or cells: Xenopus laevis oocytes (intranuclear plasmid injection, pcDNA3)
- Assay explanation: ATP concentration–response curves, two-electrode voltage clamp in oocytes expressing wild type rP2 × 4R
- Type: cell-based
- Condition summary: ATP EC50, after 300 µM NEM + vehicle treatment; control = ATP curve after treatment
Readout name: EC50 (µM)
Answer in µM, number only, no unit symbol.

Challenge: Name the reported EC50 value associated with the compound Nc1ncnc2c1ncn2[C@@H]1O[C@H](COP(=O)(O)OP(=O)(O)OP(=O)(O)O)[C@@H](O)[C@H]1O [ATP, adenosine triphosphate]
Response given: 23.8

====

- Target desc: rP2 × 2R (Rattus norvegicus, UniProt P49653)
- Sequence (P49653 1-472): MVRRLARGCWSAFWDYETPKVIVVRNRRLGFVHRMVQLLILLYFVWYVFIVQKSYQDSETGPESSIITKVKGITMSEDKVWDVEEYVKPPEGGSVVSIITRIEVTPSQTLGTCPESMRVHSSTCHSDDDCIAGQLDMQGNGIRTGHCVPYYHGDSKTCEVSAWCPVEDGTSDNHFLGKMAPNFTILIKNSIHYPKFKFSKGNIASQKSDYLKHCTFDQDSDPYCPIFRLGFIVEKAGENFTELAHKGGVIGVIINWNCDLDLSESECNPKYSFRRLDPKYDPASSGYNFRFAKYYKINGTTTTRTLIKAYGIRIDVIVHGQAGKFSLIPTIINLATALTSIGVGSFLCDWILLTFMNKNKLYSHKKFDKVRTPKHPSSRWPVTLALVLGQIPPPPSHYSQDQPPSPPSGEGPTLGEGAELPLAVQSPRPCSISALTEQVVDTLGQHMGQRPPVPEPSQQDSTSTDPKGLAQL
- Assay explanation: cell-based
- Condition summary: ATP EC50, after 300 µM NEM + 30 µM Zn(II) treatment; control = ATP curve after treatment
Readout name: EC50 (µM)
Answer in µM, number only, no unit symbol.

Challenge: Name the reported EC50 value associated with the molecule Nc1ncnc2c1ncn2[C@@H]1O[C@H](COP(=O)(O)OP(=O)(O)OP(=O)(O)O)[C@@H](O)[C@H]1O [ATP, adenosine triphosphate]
Response given: 33

====

- Target desc: rP2 × 4R C132A mutant (Rattus norvegicus, UniProt P51577, C132A)
- Construct: expressed in transfected cells; host or cells: Xenopus laevis oocytes
- Sequence (P51577 1-388 C132A): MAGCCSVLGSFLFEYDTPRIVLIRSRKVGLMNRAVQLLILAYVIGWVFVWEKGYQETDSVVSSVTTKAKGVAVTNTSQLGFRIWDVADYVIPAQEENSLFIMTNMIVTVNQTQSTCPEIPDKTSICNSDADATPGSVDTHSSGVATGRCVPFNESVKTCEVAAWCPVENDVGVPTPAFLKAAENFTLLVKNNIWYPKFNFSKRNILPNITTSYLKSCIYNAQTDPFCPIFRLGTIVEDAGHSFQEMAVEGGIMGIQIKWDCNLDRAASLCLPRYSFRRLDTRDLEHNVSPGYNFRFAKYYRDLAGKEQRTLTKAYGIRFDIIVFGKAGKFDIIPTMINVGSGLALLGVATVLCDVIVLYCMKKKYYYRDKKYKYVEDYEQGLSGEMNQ
- Assay explanation: ATP concentration–response curves, voltage clamp, C132A mutant
- Assay type: cell-based
- Condition summary: ATP EC50, C132A; control
Readout name: pEC50
As a rule, pEC50 stands for the negative log10 of the concentration, concentration in M.

Challenge: Name the reported pEC50 value associated with the compound Nc1ncnc2c1ncn2[C@@H]1O[C@H](COP(=O)(O)OP(=O)(O)OP(=O)(O)O)[C@@H](O)[C@H]1O [ATP, adenosine triphosphate]
Response given: 4.99

====

- Target desc: rP2 × 4R (Rattus norvegicus, UniProt P51577)
- Construct: host or cells: Xenopus laevis oocytes (intranuclear plasmid injection, pcDNA3)
- Sequence (P51577 1-388): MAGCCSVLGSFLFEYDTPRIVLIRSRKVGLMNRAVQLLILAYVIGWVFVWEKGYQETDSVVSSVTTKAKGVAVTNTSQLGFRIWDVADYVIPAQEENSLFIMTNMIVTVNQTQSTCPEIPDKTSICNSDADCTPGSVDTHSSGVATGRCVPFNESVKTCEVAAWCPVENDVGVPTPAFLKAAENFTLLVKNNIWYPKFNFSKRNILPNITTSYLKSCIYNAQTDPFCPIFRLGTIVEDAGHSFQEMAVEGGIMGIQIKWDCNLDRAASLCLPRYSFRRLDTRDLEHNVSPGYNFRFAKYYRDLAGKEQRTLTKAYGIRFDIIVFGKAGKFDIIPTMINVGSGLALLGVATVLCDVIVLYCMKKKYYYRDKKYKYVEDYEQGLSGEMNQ
- Assay explanation: ATP concentration–response curves, two-electrode voltage clamp in oocytes expressing wild type rP2 × 4R
- Assay type: cell-based
- Condition summary: ATP EC50, control of the DTNB + Zn(II) experiment, Figure S3
Readout name: EC50 (µM)
Answer in µM, number only, no unit symbol.

Challenge: Name the reported EC50 value associated with the compound Nc1ncnc2c1ncn2[C@@H]1O[C@H](COP(=O)(O)OP(=O)(O)OP(=O)(O)O)[C@@H](O)[C@H]1O [ATP, adenosine triphosphate]
Response given: 50.3

====

- Target desc: rP2 × 4R C132A mutant (Rattus norvegicus, UniProt P51577, C132A)
- Construct: expressed in transfected cells; host or cells: Xenopus laevis oocytes
- Assay explanation: ATP concentration–response curves, voltage clamp, C132A mutant
- Assay type: cell-based
- Condition summary: ATP EC50, C132A; +10 µM Zn(II)
Readout name: EC50
Kindly write the number and append the unit.

Challenge: Name the reported EC50 value associated with the compound Nc1ncnc2c1ncn2[C@@H]1O[C@H](COP(=O)(O)OP(=O)(O)OP(=O)(O)O)[C@@H](O)[C@H]1O [ATP, adenosine triphosphate]
Response given: 19.9 µM

Just for reference, paper PMC7555825 is where these values come from.
